Provenance of the data: ChEMBL document CHEMBL1156824

# Species: Homo sapiens
# TEST_DETAILS: Hepatic clearance in human
# CONDITIONS_USED: in vivo
Listing of entries alongside the reported CL.
RESULT_TYPE: CL (mL/min/kg)

- COMPOUND: "OC(CCN1CCCC1)(c1ccccc1)C1CCCCC1 (stereo not drawn)"
  RESULT_TYPE: "CL"
  MEASURED: 0.8
- COMPOUND: "CO/N=C(\\C(=O)N[C@@H]1C(=O)N2C(C(=O)O)=C(C)CS[C@H]12)c1csc(N)n1"
  RESULT_TYPE: "CL"
  MEASURED: 0.4
- COMPOUND: "CCc1cccc2cc(C(O)CNC(C)(C)C)oc12 (stereo not drawn)"
  RESULT_TYPE: "CL"
  MEASURED: 8.9
- COMPOUND: "O=C(N[C@H](CO)[C@H](O)c1ccc([N+](=O)[O-])cc1)C(Cl)Cl"
  RESULT_TYPE: "CL"
  MEASURED: 2.2
- COMPOUND: "COc1cccc2c1C(=O)c1c(O)c3c(c(O)c1C2=O)C[C@@](O)(C(=O)CO)C[C@@H]3O[C@H]1C[C@H](N)[C@H](O)[C@H](C)O1"
  RESULT_TYPE: "CL"
  MEASURED: 13.2
- COMPOUND: "CCc1nn(CCCN2CCN(c3cccc(Cl)c3)CC2)c(=O)n1CCOc1ccccc1"
  RESULT_TYPE: "CL"
  MEASURED: 7.1
- COMPOUND: "COc1ccc2c(c1)N(C[C@H](C)CN(C)C)c1ccccc1S2"
  RESULT_TYPE: "CL"
  MEASURED: 5.9
- COMPOUND: "COc1ccc2c(c1)c(CC(=O)O)c(C)n2C(=O)c1ccc(Cl)cc1"
  RESULT_TYPE: "CL"
  MEASURED: 1.1
